# System: Bovine gamma globulin (BGG) (Bos taurus)
# experimental_details: FP
# condition_description: control protein
readout_kind: Kd (nM)
Unit nM implied. Number only.

{"sequence_entry": "GGGGGAGGGGGCGACGCGATACCC [clone22bases19-42]", "Kd [nM]": 250}

Requested field: Kd. Item: ATACCAGCTTATTCAATT [5' primer]
400

Requested field: Kd. Item: ATACCAGCTTATTCAATTGGGGGAGGGGGCGACGCGATACCC [clone22bases1-42]
500

Requested field: Kd. Item: ATACCAGCTTATTCAATTGGGGTAGGGGGCGAAGCGATACCCTAATCAGC [clone26bases1-50]
100
